Test system: 636577-100-R-J1-PDC complex spheroid viability
assay.procedure: Anticancer human tumor 636577-100-R-J1-PDC patient-derived endometrial adenocarcinoma cell line growth inhibition [GQUAD]
assay.conditions: second compound 10 µM; first compound 0.316 µM; stronger effect = lower value
Can you tell me viability, T/C for the items I'm about to list?
State the answer as a number, implicitly in %.

[Q] # value lookup — system 636577-100-R-J1-PDC complex spheroid viability, readout viability, T/C, item CC1COCCN1c1cc(C2(S(C)(=N)=O)CC2)nc(-c2ccnc3[nH]ccc23)n1 (stereo unspecified) + Cc1cnc(CNC(=O)c2c(=O)c3ccc(N4CCCN(C)CC4)nc3n3c2sc2ccccc23)cn1
[A] 23.4

[Q] # value lookup — system 636577-100-R-J1-PDC complex spheroid viability, readout viability, T/C, item C#Cc1c(F)ccc2cc(O)cc(-c3ncc4c(N5CC6CCC(C5)N6)nc(OCC56CCCN5CC(F)C6)nc4c3F)c12 (stereo unspecified) + Cc1[nH]c2ccc(F)cc2c1-c1nc2c3cccnc3c3ncccc3c2[nH]1
[A] 38.8

[Q] # value lookup — system 636577-100-R-J1-PDC complex spheroid viability, readout viability, T/C, item Cn1ncnc1[C@H]1c2n[nH]c(=O)c3cc(F)cc(c23)N[C@@H]1c1ccc(F)cc1 + Cc1[nH]c2ccc(F)cc2c1-c1nc2c3cccnc3c3ncccc3c2[nH]1
[A] 36.4

[Q] # value lookup — system 636577-100-R-J1-PDC complex spheroid viability, readout viability, T/C, item CC[C@@]1(O)C(=O)OCc2c1cc1n(c2=O)Cc2cc3c(CN(C)C)c(O)ccc3nc2-1 + CN(C)c1ccc(Nc2c3ccc(NC(=O)CCN4CCCC4)cc3nc3cc(NC(=O)CCN4CCCC4)ccc23)cc1
[A] 4.24

[Q] # value lookup — system 636577-100-R-J1-PDC complex spheroid viability, readout viability, T/C, item CC1COCCN1c1cc(-c2ccnn2C)c2ccnc(-c3ccn[nH]3)c2n1 (stereo unspecified) + Cc1[nH]c2ccc(F)cc2c1-c1nc2c3cccnc3c3ncccc3c2[nH]1
[A] 20.6

[Q] # value lookup — system 636577-100-R-J1-PDC complex spheroid viability, readout viability, T/C, item CC(C)(O)C1CCC(Nc2ccc3ncc(-c4cccc(C(F)(F)F)c4)n3n2)CC1 (stereo unspecified) + CN(C)c1ccc(Nc2c3ccc(NC(=O)CCN4CCCC4)cc3nc3cc(NC(=O)CCN4CCCC4)ccc23)cc1
[A] 5.56

[Q] # value lookup — system 636577-100-R-J1-PDC complex spheroid viability, readout viability, T/C, item O=C(NO)c1cnc(N2CCN(S(=O)(=O)c3ccc4ccccc4c3)CC2)nc1 + CN(C)c1ccc(Nc2c3ccc(NC(=O)CCN4CCCC4)cc3nc3cc(NC(=O)CCN4CCCC4)ccc23)cc1
[A] 5.08

[Q] # value lookup — system 636577-100-R-J1-PDC complex spheroid viability, readout viability, T/C, item COc1cc(C2c3cc4c(cc3C(OC3OC5COC(C)OC5C(O)C3O)C3COC(=O)C23)OCO4)cc(OC)c1O (stereo unspecified) + Cc1cnc(CNC(=O)c2c(=O)c3ccc(N4CCCN(C)CC4)nc3n3c2sc2ccccc23)cn1
[A] 19.4

[Q] # value lookup — system 636577-100-R-J1-PDC complex spheroid viability, readout viability, T/C, item CC1COCCN1c1cc(C2(S(C)(=N)=O)CC2)nc(-c2ccnc3[nH]ccc23)n1 (stereo unspecified) + Cc1[nH]c2ccc(F)cc2c1-c1nc2c3cccnc3c3ncccc3c2[nH]1
[A] 56.5

[Q] # value lookup — system 636577-100-R-J1-PDC complex spheroid viability, readout viability, T/C, item Cc1[nH]c2ccccc2c1CCNCc1ccc(/C=C/C(=O)NO)cc1 + Cc1[nH]c2ccc(F)cc2c1-c1nc2c3cccnc3c3ncccc3c2[nH]1
[A] 10.7

[Q] # value lookup — system 636577-100-R-J1-PDC complex spheroid viability, readout viability, T/C, item COc1cccc2c1C(=O)c1c(O)c3c(c(O)c1C2=O)CC(O)(C(=O)CO)CC3OC1CC(N)C(O)C(C)O1 (stereo unspecified) + CN(C)c1ccc(Nc2c3ccc(NC(=O)CCN4CCCC4)cc3nc3cc(NC(=O)CCN4CCCC4)ccc23)cc1
[A] 1.84

[Q] # value lookup — system 636577-100-R-J1-PDC complex spheroid viability, readout viability, T/C, item CC1COCCN1c1cc(C2(O)CC3CCC(C2)O3)c2cnn(-c3ccn[nH]3)c2n1 (stereo unspecified) + Cc1cnc(CNC(=O)c2c(=O)c3ccc(N4CCCN(C)CC4)nc3n3c2sc2ccccc23)cn1
[A] 14

[Q] # value lookup — system 636577-100-R-J1-PDC complex spheroid viability, readout viability, T/C, item CC(C)n1c(=O)n(C)c2cnc3cc(F)c(-c4ccc(OCCCN5CCCCC5)nc4)cc3c21 + CN(C)c1ccc(Nc2c3ccc(NC(=O)CCN4CCCC4)cc3nc3cc(NC(=O)CCN4CCCC4)ccc23)cc1
[A] 4.48

[Q] # value lookup — system 636577-100-R-J1-PDC complex spheroid viability, readout viability, T/C, item Nc1ccn(C2OC(CO)C(O)C2(F)F)c(=O)n1 (stereo unspecified) + Cc1cnc(CNC(=O)c2c(=O)c3ccc(N4CCCN(C)CC4)nc3n3c2sc2ccccc23)cn1
[A] 18.1

[Q] # value lookup — system 636577-100-R-J1-PDC complex spheroid viability, readout viability, T/C, item COc1cc(C2c3cc4c(cc3C(OC3OC5COC(C)OC5C(O)C3O)C3COC(=O)C23)OCO4)cc(OC)c1O (stereo unspecified) + Cc1[nH]c2ccc(F)cc2c1-c1nc2c3cccnc3c3ncccc3c2[nH]1
[A] 21.9

[Q] # value lookup — system 636577-100-R-J1-PDC complex spheroid viability, readout viability, T/C, item CC(C)(O)C1CCC(Nc2ccc3ncc(-c4cccc(C(F)(F)F)c4)n3n2)CC1 (stereo unspecified) + Cc1[nH]c2ccc(F)cc2c1-c1nc2c3cccnc3c3ncccc3c2[nH]1
[A] 39

[Q] # value lookup — system 636577-100-R-J1-PDC complex spheroid viability, readout viability, T/C, item Cn1ncnc1[C@H]1c2n[nH]c(=O)c3cc(F)cc(c23)N[C@@H]1c1ccc(F)cc1 + Cc1cnc(CNC(=O)c2c(=O)c3ccc(N4CCCN(C)CC4)nc3n3c2sc2ccccc23)cn1
[A] 19.2

[Q] # value lookup — system 636577-100-R-J1-PDC complex spheroid viability, readout viability, T/C, item CCCS(=O)(=O)Nc1ccc(F)c(C(=O)c2c[nH]c3ncc(-c4ccc(Cl)cc4)cc23)c1F + Cc1[nH]c2ccc(F)cc2c1-c1nc2c3cccnc3c3ncccc3c2[nH]1;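 note: luminescence signal used as a proxy for viable cells; viability read after seven days of drug exposure; 100% = DMSO vehicle control wells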
[A] 48.7

[Q] # value lookup — system 636577-100-R-J1-PDC complex spheroid viability, readout viability, T/C, item Cc1[nH]c2ccccc2c1CCNCc1ccc(/C=C/C(=O)NO)cc1 + CN(C)c1ccc(Nc2c3ccc(NC(=O)CCN4CCCC4)cc3nc3cc(NC(=O)CCN4CCCC4)ccc23)cc1;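 note: luminescence signal used as a proxy for viable cells; viability read after seven days of drug exposure; 100% = DMSO vehicle control wells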
[A] 3.97

[Q] # value lookup — system 636577-100-R-J1-PDC complex spheroid viability, readout viability, T/C, item COc1ccc([C@@H](O)c2cc(-c3ncnc4cc(N5CCOCC5)ccc34)c(F)cc2Cl)nn1 + Cc1cnc(CNC(=O)c2c(=O)c3ccc(N4CCCN(C)CC4)nc3n3c2sc2ccccc23)cn1;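 note: luminescence signal used as a proxy for viable cells; viability read after seven days of drug exposure; 100% = DMSO vehicle control wells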
[A] 19.6

[Q] # value lookup — system 636577-100-R-J1-PDC complex spheroid viability, readout viability, T/C, item O=c1[nH]cc(F)c(=O)[nH]1 + Cc1cnc(CNC(=O)c2c(=O)c3ccc(N4CCCN(C)CC4)nc3n3c2sc2ccccc23)cn1;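 note: luminescence signal used as a proxy for viable cells; viability read after seven days of drug exposure; 100% = DMSO vehicle control wells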
[A] 18
